System tested: bovine trypsin (Bos taurus, UniProt P00760)
Sequence (P00760 24-246): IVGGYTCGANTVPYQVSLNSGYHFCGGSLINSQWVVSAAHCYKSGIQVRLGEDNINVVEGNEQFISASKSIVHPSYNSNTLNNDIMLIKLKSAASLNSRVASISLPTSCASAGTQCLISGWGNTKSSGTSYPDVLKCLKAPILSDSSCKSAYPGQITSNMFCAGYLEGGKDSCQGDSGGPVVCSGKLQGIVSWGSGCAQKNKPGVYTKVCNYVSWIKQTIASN
pIC50: −log10 of the molar value.

Compound: N=C(N)NCCC[C@H](NC(=O)[C@@H]1CCN2CC[C@@](N)(Cc3ccccc3)C(=O)N12)C(=O)CCl [Structure (13b)]
pIC50: 7.80
